TGT: murine class II MHC allele E^k on CH27 B cell lymphoma antigen presenting cells (murine)
MEASUREMENT_NOTES: cell-based or functional assay
Non-standard residues stand in square brackets, D forms with d. Ava = NCCCCC(=O)O
ENDPOINT: T cell proliferative response (HT-2 [3H]TdR uptake) at 12 nM

Illustrative cases are given below, each with its answer.
BINDER | ASSAY_RESULT
Ac-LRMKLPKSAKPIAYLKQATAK-NH2 [Hybrid 5, Ac-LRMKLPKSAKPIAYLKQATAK-NH2] | 44.6 thousands of cpm
Ac-LRMK[Ava][Ava]IAYLKQATAK-NH2 (SMILES CC[C@H](C)[C@H](NC(=O)CCCCNC(=O)CCCCNC(=O)[C@H](CCCCN)NC(=O)[C@H](CCSC)NC(=O)[C@H](CCCNC(=N)N)NC(=O)[C@H](CC(C)C)NC(C)=O)C(=O)N[C@@H](C)C(=O)N[C@@H](Cc1ccc(O)cc1)C(=O)N[C@@H](CC(C)C)C(=O)N[C@@H](CCCCN)C(=O)N[C@@H](CCC(N)=O)C(=O)N[C@@H](C)C(=O)N[C@H](C(=O)N[C@@H](C)C(=O)N[C@@H](CCCCN)C(N)=O)[C@@H](C)O) [Hybrid 3, Ac-LRMK-ava-ava-IAYLKQATAK-NH2] | 29.5 thousands of cpm
Ac-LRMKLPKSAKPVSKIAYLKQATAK-NH2 [Hybrid 6, Ac-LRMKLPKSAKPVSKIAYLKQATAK-NH2] | 39.2 thousands of cpm

Provide the reported T cell proliferative response (HT-2 [3H]TdR uptake) at 12 nM of each entry below, same order.
1. Ac-LRMK[Ava]IAYLKQATAK-NH2 (SMILES CC[C@H](C)[C@H](NC(=O)CCCCNC(=O)[C@H](CCCCN)NC(=O)[C@H](CCSC)NC(=O)[C@H](CCCNC(=N)N)NC(=O)[C@H](CC(C)C)NC(C)=O)C(=O)N[C@@H](C)C(=O)N[C@@H](Cc1ccc(O)cc1)C(=O)N[C@@H](CC(C)C)C(=O)N[C@@H](CCCCN)C(=O)N[C@@H](CCC(N)=O)C(=O)N[C@@H](C)C(=O)N[C@H](C(=O)N[C@@H](C)C(=O)N[C@@H](CCCCN)C(N)=O)[C@@H](C)O) [Hybrid 2, Ac-LRMK-ava-IAYLKQATAK-NH2]
2. Ac-LRMKLPKSIAYLKQATAK-NH2 [Hybrid 4, Ac-LRMKLPKSIAYLKQATAK-NH2]
3. Ac-IAYLKQATAK-NH2 [Hybrid 1, Ac-IAYLKQATAK-NH2 (antigenic epitope PGCC 95-104 without Ii-Key)]

Output:
21.9 thousands of cpm
23.1 thousands of cpm
10.9 thousands of cpm
